- System: L1210 leukemia ip in BDF1 mice, survival T/C
- assay_procedure: NCI In Vivo Anticancer Drug Screen. Data for tumor model L1210 Leukemia (intraperitoneal) in B6D2F1 (BDF1) mice
- stated_conditions: endpoint: mean survival time; dose: 40.0 mg/kg/injection; schedule: Q01DX001 (ip); vehicle: saline; higher = longer survival
Toxic doses and inconclusive results are not listed.
reported_endpoint: T/C

These recorded examples may help you get a feel for the data.
# structure, value_reported
records = [
    ("CC1(C)N=C(N)N=C(N)N1c1cccc(OCCCOc2cccc(NC(=O)CBr)c2)c1", "103 % of control"),
    ("O=C(C[n+]1ccccc1-c1ccccn1)c1ccccc1", "113 % of control"),
    ("c1ccc(-c2nc(-c3ccccn3)nc(-c3ccccn3)n2)nc1", "93 % of control"),
    ("CC1(C)N=C(N)N=C(N)N1c1cccc(OCc2cccc(NC(=O)CBr)c2)c1", "97 % of control"),
]

Q) Look at this compound and give its reported T/C. "O=C(OCCOCCN1CCCCC1)N1c2ccccc2Sc2cccnc21"
A) 101 % of control

* * *

- Test system: L1210 leukemia ip in BDF1 mice, survival T/C
- assay_procedure: NCI In Vivo Anticancer Drug Screen. Data for tumor model L1210 Leukemia (intraperitoneal) in B6D2F1 (BDF1) mice
- stated_conditions: endpoint: mean survival time; dose: 200.0 mg/kg/injection; schedule: Q04DX002 (ip); vehicle: saline; higher = longer survival
Toxic doses and inconclusive results are not listed.
T/C values for the compounds below.

These recorded examples may help you get a feel for the data.
# compound, T/C
measured = [
    ("CC(N)(CO)CO", "103 % of control"),
    ("CC(=O)OC1CC(n2cc(C)c(=O)[nH]c2=O)OC1COP(=O)(N1CC1)N1CC1 (stereo unspecified)", "112 % of control"),
    ("O=C1NCCN1", "107 % of control"),
]

Q) Look at this compound and give its reported T/C. "Cc1ncn[nH]1"
A) 100 % of control

Q) Look at this compound and give its reported T/C. "O=C1c2cccc3cc([N+](=O)[O-])cc(c23)C(=O)N1C(CO)(CO)CO"
A) 101 % of control

Q) Look at this compound and give its reported T/C. O=C1OC(CN2CCOCC2)CN1/N=C/c1ccc([N+](=O)[O-])o1 (stereo unspecified)
A) 98 % of control

* * *

T/C values for the compounds below.
- Tested on: L1210 leukemia ip in BDF1 mice, survival T/C
- assay_procedure: NCI In Vivo Anticancer Drug Screen. Data for tumor model L1210 Leukemia (intraperitoneal) in B6D2F1 (BDF1) mice
- stated_conditions: endpoint: mean survival time; dose: 100.0 mg/kg/injection; schedule: Q01DX001 (ip); vehicle: saline; higher = longer survival
Toxic doses and inconclusive results are not listed.

These recorded examples may help you get a feel for the data.
# compound, value_reported
measured = [
    ("CC(C)(C)C1CCC2(CC1)CCN(CCCN1CCCCCC1)CC2", "107 % of control"),
    ("COP(=O)(CCBr)OC", "103 % of control"),
]

Q) Look at this compound and give its reported T/C. "COc1ccc(CN2CCCN(Cc3ccc(OC)cc3OC)C2c2cc(Br)ccc2O)c(OC)c1"
A) 90 % of control

Q) Look at this compound and give its reported T/C. "O=[N+]([O-])c1ccc(O)cc1/C=N/Nc1nnc(N/N=C/c2cc(O)ccc2[N+](=O)[O-])c2ccccc12"
A) 98 % of control

Q) Look at this compound and give its reported T/C. "O=S1(=O)c2ccccc2C(=NO)c2ccccc21"
A) 97 % of control

Q) Look at this compound and give its reported T/C. NNC(=O)c1ncn(C2OC(CO)C(O)C2O)c1C(=O)NN (stereo not drawn)
A) 98 % of control

Q) Look at this compound and give its reported T/C. Cc1cccc(C(Cc2ccc(N3C(N)=NC(N)=NC3(C)C)cc2)C(=O)Nc2ccc(S(=O)(=O)F)cc2)c1 (stereo not drawn)
A) 108 % of control

Q) Look at this compound and give its reported T/C. "Nc1ccc2c(c1[N+](=O)[O-])C(=O)c1ccccc1C2=O"
A) 92 % of control

Q) Look at this compound and give its reported T/C. O=C(OC1COC(OC(=O)c2ccc([N+](=O)[O-])cc2)C(OC(=O)c2ccc([N+](=O)[O-])cc2)C1OC(=O)c1ccc([N+](=O)[O-])cc1)c1ccc([N+](=O)[O-])cc1 (stereo not drawn)
A) 93 % of control

Q) Look at this compound and give its reported T/C. "CN(C)P1N(C)CCN1C"
A) 95 % of control
